Listed compounds paired with reported pIC50
- target.system: EGFR (Homo sapiens, UniProt P00533)
- Construct: Kinases are expressed as either kinase domains or full length constructs; made in house
- Sequence (P00533 25-1210, species assumed): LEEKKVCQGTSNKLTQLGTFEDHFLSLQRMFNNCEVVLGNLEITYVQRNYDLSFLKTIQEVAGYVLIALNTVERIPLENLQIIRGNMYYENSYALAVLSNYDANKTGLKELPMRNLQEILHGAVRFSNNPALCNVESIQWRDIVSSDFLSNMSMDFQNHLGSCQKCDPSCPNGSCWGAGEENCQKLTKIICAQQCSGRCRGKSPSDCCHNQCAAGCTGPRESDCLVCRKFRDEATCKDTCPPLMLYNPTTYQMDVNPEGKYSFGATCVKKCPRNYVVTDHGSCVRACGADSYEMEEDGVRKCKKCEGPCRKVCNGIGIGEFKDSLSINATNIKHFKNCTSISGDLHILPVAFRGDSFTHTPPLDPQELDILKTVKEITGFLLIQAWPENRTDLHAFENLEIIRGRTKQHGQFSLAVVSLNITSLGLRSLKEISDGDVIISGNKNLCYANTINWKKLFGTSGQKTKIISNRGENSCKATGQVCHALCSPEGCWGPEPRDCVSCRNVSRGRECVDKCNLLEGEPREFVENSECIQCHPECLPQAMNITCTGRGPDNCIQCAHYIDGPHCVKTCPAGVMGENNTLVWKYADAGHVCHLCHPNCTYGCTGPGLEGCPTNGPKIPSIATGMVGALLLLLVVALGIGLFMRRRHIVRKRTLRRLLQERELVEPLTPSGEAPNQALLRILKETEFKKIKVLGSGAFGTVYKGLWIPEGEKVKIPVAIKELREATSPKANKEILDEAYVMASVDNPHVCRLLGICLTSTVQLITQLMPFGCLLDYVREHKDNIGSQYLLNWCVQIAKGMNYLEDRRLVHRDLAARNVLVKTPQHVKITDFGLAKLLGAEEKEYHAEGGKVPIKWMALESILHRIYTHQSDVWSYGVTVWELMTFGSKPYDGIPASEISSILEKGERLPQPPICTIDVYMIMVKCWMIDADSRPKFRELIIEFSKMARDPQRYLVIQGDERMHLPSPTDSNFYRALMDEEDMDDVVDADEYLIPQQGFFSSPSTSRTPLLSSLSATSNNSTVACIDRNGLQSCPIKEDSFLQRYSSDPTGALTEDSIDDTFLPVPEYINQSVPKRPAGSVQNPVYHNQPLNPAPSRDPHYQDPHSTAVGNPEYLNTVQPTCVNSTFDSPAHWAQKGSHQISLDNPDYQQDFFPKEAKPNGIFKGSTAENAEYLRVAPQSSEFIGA
- experiment: Kinase inhibition assay (33P transfer), EGFR
- Type: biochemical
- experimental.conditions: Table 2, kinase inhibition class; read-out: EGFR-1
pIC50: −log10 of the molar value.

Recorded results for 3 compounds are shown here.
[[record]]
compound = "O=C(O)Cc1ccc(Nc2ncnc(Nc3cc(-c4ccco4)n[nH]3)n2)cc1"
endpoint = "pIC50"
observed_result = "> 5.97"

[[record]]
compound = "COc1cc(Nc2ncnc(Nc3cc(OC)c(OC)c(OC)c3)n2)cc(OC)n1"
endpoint = "pIC50"
observed_result = "5.07 to 5.24"

[[record]]
compound = "Cc1ccc(Nc2ncnc(N)n2)cc1"
endpoint = "pIC50"
observed_result = "< 4.65"


Sample COC(=O)Cc1cccc(Nc2ncnc(-n3c(N)nc4ccccc43)n2)c1 ; pIC50 observed: 5.03 to 5.19

Sample COCCOc1ccc(Nc2ncnc(-n3c(N)nc4ccccc43)n2)cc1OCCOC ; pIC50 observed: < 5.00

Sample c1ccc(Cn2ncc3cc(Nc4ncnc(Nc5cc(-c6ccccc6)[nH]n5)n4)ccc32)cc1 ; pIC50 observed: 5.28 to 6.06

Sample COc1ccc(Nc2ncnc(NCC(O)c3ccccc3)n2)cc1OC (centres unmarked) ; pIC50 observed: 4.91 to 5.02

Sample COc1cc(Nc2ncnc(Nc3cc(Cl)c(O)c(Cl)c3)n2)cc(OC)c1OC ; pIC50 observed: > 6.04

----------
Listed compounds paired with reported IC50
- target.system: AKT (Homo sapiens, UniProt Q9Y243)
- Construct: Kinases are expressed as either kinase domains or full length constructs; made in house
- Sequence (Q9Y243 whole entry, the tested form may be a part): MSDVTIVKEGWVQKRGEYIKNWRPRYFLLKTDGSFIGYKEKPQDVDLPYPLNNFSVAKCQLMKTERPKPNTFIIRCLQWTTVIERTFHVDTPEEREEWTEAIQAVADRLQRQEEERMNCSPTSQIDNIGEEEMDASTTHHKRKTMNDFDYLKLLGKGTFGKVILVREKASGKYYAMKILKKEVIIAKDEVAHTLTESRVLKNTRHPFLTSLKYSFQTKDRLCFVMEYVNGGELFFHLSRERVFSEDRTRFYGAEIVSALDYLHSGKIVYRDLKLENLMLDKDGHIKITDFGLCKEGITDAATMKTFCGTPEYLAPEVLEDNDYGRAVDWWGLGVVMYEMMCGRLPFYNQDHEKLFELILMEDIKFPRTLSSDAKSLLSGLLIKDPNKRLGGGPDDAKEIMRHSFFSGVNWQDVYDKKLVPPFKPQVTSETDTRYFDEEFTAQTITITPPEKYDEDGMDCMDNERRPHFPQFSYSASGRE
- experiment: Kinase inhibition assay (33P transfer), AKT
- Assay type: biochemical
- experimental.conditions: Table 2, kinase inhibition class; read-out: AKT3-1

Recorded results for 8 compounds are shown here.
[[record]]
compound = "COc1cc(Nc2ncnc(-n3c(Nc4cccc(C)c4)nc4ccccc43)n2)cc(OC)c1OC"
endpoint = "IC50"
observed_result = "> 9.31 µM"

[[record]]
compound = "COc1ccc(Nc2ncnc(-n3c(N)nc4ccccc43)n2)cc1O"
endpoint = "IC50"
observed_result = "6.87 to 10 µM"

[[record]]
compound = "COc1cc(Nc2ncnc(-c3c(O)n(C)c4ccccc34)n2)cc(OC)c1OC"
endpoint = "IC50"
observed_result = "> 11 µM"

[[record]]
compound = "COc1cc(Nc2ncnc(Nc3ccc(C)cc3)n2)cc(OC)c1OC"
endpoint = "IC50"
observed_result = "> 12.2 µM"

[[record]]
compound = "COc1cc(Nc2ncnc(N)n2)cc(OC)c1OC"
endpoint = "IC50"
observed_result = "> 16.2 µM"

[[record]]
compound = "COC(=O)Cc1cccc(Nc2ncnc(-n3c(NCc4ccccn4)nc4ccccc43)n2)c1"
endpoint = "IC50"
observed_result = "> 9.65 µM"

[[record]]
compound = "COc1cc(Nc2ncnc(-n3c(NCc4ccc(N(C)C)cc4)nc4ccccc43)n2)cc(OC)c1OC"
endpoint = "IC50"
observed_result = "> 8.55 µM"

[[record]]
compound = "NC(=O)c1cccc(Nc2ncnc(-c3ccccc3)n2)c1"
endpoint = "IC50"
observed_result = "> 15.4 µM"


Sample C#Cc1cccc(Nc2ncnc(Nc3ccc(OC)c(OC)c3)n2)c1 ; IC50 observed: > 13 µM

Sample Cc1cccc(Nc2ncnc(Nc3cc(-c4ccccc4)n[nH]3)n2)c1 ; IC50 observed: 1.16 to 6.99 µM

Sample CN1CCN(Cc2cccc(Nc3ncnc(Nc4ccc5c(cnn5Cc5ccccc5)c4)n3)c2)CC1 ; IC50 observed: > 8.9 µM

Sample COc1cc(Nc2ncnc(Nc3cc(C)ccc3C)n2)cc(OC)c1OC ; IC50 observed: > 11.8 µM

Sample COc1cc(Nc2ncnc(Nc3ccc(C)c(F)c3)n2)cc(OC)c1OC ; IC50 observed: > 11.7 µM

Sample COc1ccc(Nc2ncnc(N(C)c3cccc(Cl)c3)n2)cc1OC ; IC50 observed: > 12.1 µM

Sample CCC(Nc1nc2ccccc2n1-c1ncnc(Nc2cc(OC)c(OC)c(OC)c2)n1)c1ccccc1 (centres unmarked) ; IC50 observed: > 8.8 µM

Sample c1ccc(Cn2ncc3cc(Nc4ncnc(NCC5CCCCC5)n4)ccc32)cc1 ; IC50 observed: > 10.9 µM

Sample CCN(CC)CCOc1cc(Nc2ncnc(Nc3cc(OC)c(OC)c(OC)c3)n2)ccc1OC ; IC50 observed: > 9.03 µM
